# assay-system: CYP2D6*2 (Homo sapiens, UniProt P10635, R296C/S486T)
# test-description: Inhibition of tramadol O-demethylation, CYP2D6*2 Bactosomes
Each entry below carries its reported Ki.
Reply numerically in µM, unit not repeated.

> print(dat)
                                   compound                              assay.system  result
1  CN(C/C=C/C#CC(C)(C)C)Cc1cccc2ccccc12 [Terbinafine, terbinafine]  CYP2D6*2 (Homo sapiens, UniProt P10635, R296C/S486T)   0.067

Could you now look at the following compound, please?
[ask] Give CYP2D6*2 (Homo sapiens, UniProt P10635, R296C/S486T) Ki for CC(NC(C)(C)C)C(=O)c1cccc(Cl)c1 (centres unmarked) [Bupropion, bupropion]
[reply] 11.5

* * *

Each entry below carries its reported Ki.
# assay-system: CYP2D6*10 (Homo sapiens, UniProt P10635, P34S/S486T)
# test-description: Inhibition of tramadol O-demethylation, CYP2D6*10 Bactosomes
Reply numerically in µM, unit not repeated.

> print(dat)
                                   compound  result
1  CN(C/C=C/C#CC(C)(C)C)Cc1cccc2ccccc12 [Terbinafine, terbinafine]   0.235

Could you now look at the following compound, please?
[ask] Quick one: Ki of CC(NC(C)(C)C)C(=O)c1cccc(Cl)c1 (centres unmarked) [Bupropion, bupropion] ?
[reply] 55.9

* * *

# assay-system: CYP2D6*10 (Homo sapiens, UniProt P10635, P34S/S486T)
# test-context: human, recombinant CYP2D6*10 Bactosomes, pH 7.4
Structures can show the parent of a compound that is named as a salt.
quantity: Km at 30 min (µM)
Reply numerically in µM, unit not repeated.

[ask] Quick one: Km at 30 min of COc1cccc(C2(O)CCCCC2CN(C)C)c1 (stereo not shown) [Tramadol, tramadol hydrochloride] ?
[reply] 204

* * *

# assay-system: CYP2D6*17 (Homo sapiens, UniProt P10635, R296C/S486T/T107I)
# test-description: Inhibition of tramadol O-demethylation, CYP2D6*17 Bactosomes
quantity: Ki
State the result as a value with its unit after it.

> print(dat)
                                   compound  quantity    result
1  CN(C/C=C/C#CC(C)(C)C)Cc1cccc2ccccc12 [Terbinafine, terbinafine]        Ki  0.844 µM

Could you now look at the following compound, please?
[ask] Quick one: Ki of CC(NC(C)(C)C)C(=O)c1cccc(Cl)c1 (centres unmarked) [Bupropion, bupropion] ?
[reply] 20.2 µM
